# Tested on: SW620 cells
# Condition set: human, 150 µM
No end group written: not given here.
Field: percentage of cell viability SW620 cells. Provide a value for each of the substances that follow.
Numbers only, in %.

For each of the substances below, note its percentage of cell viability SW620 cells.
1. PARDVLNTTSG-NH2 [P264-G274, PARDVLNTTSG-NH2]
2. TYFNAVKPPITA-NH2 [Loop2-PS2Aa, TYFNAVKPPITA-NH2]
3. H-FLGWLFKVASK-NH2 [A4W-GGN5, FLGWLFKVASK-NH2, reference compound]

16.5
24.1
32.2

For each of the substances below, note its percentage of cell viability SW620 cells.
1. FKPQSGGGKCF-NH2 [Loop1-HCoV-229E, FKPQSGGGKCF-NH2]
2. NNETYFNAVKP-NH2 [Loop1-PS2Aa, NNETYFNAVKP-NH2]

55.2
46.8
